Consider the following binders and their measured koff readings.
Molecular target: T1, rhesus monkey ERBB3 His tag, monomeric (rhesus monkey (Macaca mulatta), UniProt P21860 20-643 (human entry), limits assumed)
T1 chain: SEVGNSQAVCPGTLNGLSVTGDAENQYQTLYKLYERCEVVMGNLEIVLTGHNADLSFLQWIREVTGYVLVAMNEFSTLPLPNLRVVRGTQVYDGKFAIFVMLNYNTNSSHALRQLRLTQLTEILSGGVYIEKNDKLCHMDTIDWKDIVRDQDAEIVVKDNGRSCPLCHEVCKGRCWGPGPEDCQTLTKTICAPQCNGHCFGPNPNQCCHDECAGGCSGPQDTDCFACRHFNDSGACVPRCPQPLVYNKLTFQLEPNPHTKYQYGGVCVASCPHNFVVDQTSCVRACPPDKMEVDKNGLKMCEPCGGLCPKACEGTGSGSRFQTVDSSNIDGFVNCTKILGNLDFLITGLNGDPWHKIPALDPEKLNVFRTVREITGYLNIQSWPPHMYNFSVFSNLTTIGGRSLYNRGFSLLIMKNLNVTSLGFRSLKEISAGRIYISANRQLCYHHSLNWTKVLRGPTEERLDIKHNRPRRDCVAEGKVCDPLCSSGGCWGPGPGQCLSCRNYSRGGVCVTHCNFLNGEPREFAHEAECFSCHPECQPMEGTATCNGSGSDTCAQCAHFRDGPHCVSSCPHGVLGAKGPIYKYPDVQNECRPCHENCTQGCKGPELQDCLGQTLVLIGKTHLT
Test: SPR (Biacore), captured IgG, monomeric ERBB3-His analyte
Use s⁻¹ as the unit, but write only the number.

INSERT INTO measurements (binder, measurement_units, recorded_result) VALUES
  ('15D10 IgG1null (antibody, V domains shown, Human IgG1null (L234A, L235A, G237A) and human Ckappa) VH: QVQLVESGGGLVKPGGSLRLSCAASGFTFSDYGMSWIRQAPGKGLEWVSTISDGGSYTYYADNVKGRFTISRDNAKNSLYLQMNSLRAEDTAVYYCAREWGDYDGFDFWGQGTLVTVSS VL: DIQMTQSPSSLSASVGDRVTITCRASQSISSYLSWYQQKPGKAPKLLIYAASTLQSGVPSRFSGSGSGTDFTLTISSLQPEDFATYYCLQYDSTPLTFGGGTKVEIK', 's⁻¹', 0.0018),
  ('MH2 IgG1null (antibody, V domains shown, Designer (Maximally Humanized) clone; Human IgG1null and human Ckappa) VH: QVQLVESGGGLVKPGGSLRLSCAASGFTFSDYGMSWIRQAPGKGLEWVSTISDSGSYIYYADSVKGRFTISRDNAKNSLYLQMNSLRAEDTAVYYCAREWGDYDGFDFWGQGTLVTVSS VL: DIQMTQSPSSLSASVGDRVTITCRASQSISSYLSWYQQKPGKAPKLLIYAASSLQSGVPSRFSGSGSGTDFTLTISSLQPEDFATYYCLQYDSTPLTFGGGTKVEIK', 's⁻¹', 0.0048);

In the following, a different binder is considered.
The reported koff of the binder 09D12 IgG1null (antibody, V domains shown, Human IgG1null and human Ckappa) VH: QVQLVESGGGLVKPGGSLRLSCAASGFTFSDYGMSWIRQAPGKGLEWVSTISDGGSYTYYADSVKGRFTISRDNAKNSLYLQMNSLRAEDTAVYYCAREYGDYDGFDYWGQGTLVTVSS VL: DIQMTQSPSSLSASVGDRVTITCRASQSISSYLNWYQQKPGKAPKLLIYAASSLDSGVPSRFSGSGSGTDFTLTISSLQPEDFATYYCLQYDSTPLTFGGGTKVEIK was 0.0074
